Entry source: patent US5114925A

Biological target: human renin (Homo sapiens, UniProt P00797)
Construct: added to human plasma (75 μl) containing EDTA; from tissue; host or cells: human plasma
Sequence (P00797 67-406): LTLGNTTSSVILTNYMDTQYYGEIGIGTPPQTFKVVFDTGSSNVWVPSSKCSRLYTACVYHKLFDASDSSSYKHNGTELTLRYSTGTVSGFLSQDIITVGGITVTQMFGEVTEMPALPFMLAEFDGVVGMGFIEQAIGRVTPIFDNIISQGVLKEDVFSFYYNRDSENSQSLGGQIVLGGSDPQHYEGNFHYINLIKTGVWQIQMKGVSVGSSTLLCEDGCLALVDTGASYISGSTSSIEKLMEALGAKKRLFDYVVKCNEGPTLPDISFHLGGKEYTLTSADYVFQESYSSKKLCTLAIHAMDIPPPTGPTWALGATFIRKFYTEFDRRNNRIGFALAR
Assay: plasma renin assay (radioimmunoassay of angiotensin-I released in human plasma)
Type: biochemical
Details: human renin and human renin substrate in human plasma, 37° C., pH 6.9, angiotensin-I by radioimmunoassay; read-out: IC50 (the molar concentration required to cause 50% inhibition), renin inhibitory activity
For each entry below, report its pIC50 value.
Recall that pIC50 is obtained by taking minus log10 of the concentration measured in molar.

Give a short answer stating reported pIC50 for CC(C)CC(C(=O)NCCN1CCOCC1)[S+]([O-])C[C@H](O)[C@H](CC1CCCCC1)NC(=O)[C@H](Cc1cnc[nH]1)NC(=O)[C@H](Cc1ccccc1)NC(=O)OC(C)(C)C (some centres unmarked) .
7.06

Please give the documented pIC50 of CC(C)(C)OC(=O)N[C@@H](Cc1ccccc1)C(=O)N[C@@H](Cc1c[nH]cn1)C(=O)N[C@@H](CC1CCCCC1)[C@@H](O)CS(=O)(=O)CC(=O)NC1CCN(Cc2ccccc2)CC1
7.47

Read the entry CC(C)CC(SC[C@H](O)[C@H](CC1CCCCC1)NC(=O)[C@H](Cc1c[nH]cn1)NC(=O)[C@H](Cc1ccccc1)NC(=O)OC(C)(C)C)C(=O)NCCN1CCOCC1 (mixture of isomers) and write its reported pIC50.
7.14

Return the recorded pIC50 value; entry: CC(C)(C)OC(=O)N[C@@H](Cc1ccccc1)C(=O)N[C@@H](Cc1c[nH]cn1)C(=O)N[C@@H](CC1CCCCC1)[C@@H](O)CSCC(=O)NCc1ccncc1 [4-[[2-[X-thio]acetamido]methyl]pyridine]
7.04

Fill in reported pIC50 for this entry: CCOC(=O)CSC[C@H](O)[C@H](CC1CCCCC1)NC(=O)[C@H](Cc1cnc[nH]1)NC(=O)[C@H](Cc1ccccc1)NC(=O)OC(C)(C)C [ethyl 2-[X-thio]acetate]
7.24

* * *

Would you kindly list IC50 for each of these molecules?
Target: human renin (Homo sapiens)
Construct: added to human plasma (75 μl) containing EDTA
Assay: plasma renin assay (radioimmunoassay of angiotensin-I released in human plasma)
Settings: human renin and human renin substrate in human plasma, 37° C., pH 6.9, angiotensin-I by radioimmunoassay; read-out: IC50 (the molar concentration required to cause 50% inhibition), renin inhibitory activity
Field format: number, assumed nM, no unit text.

Determine its reported IC50: CC(C)(C)OC(=O)NC(Cc1ccccc1)C(=O)NC(Cc1cnc[nH]1)C(=O)NC(CC1CCCCC1)C(O)CSCC(=O)NC1CN2CCC1CC2 (centres unmarked) [3-[2-[X-thio]acetamido}quinuclidine]
29

Kindly indicate its recorded IC50. Item: CN1CCN(C(=O)CSC[C@H](O)[C@H](CC2CCCCC2)NC(=O)[C@H](Cc2cnc[nH]2)NC(=O)[C@H](Cc2ccccc2)NC(=O)OC(C)(C)C)CC1 [4-[2-[X-thio]acetyl]-1-methylpiperazine]
29

State, in one line, measured IC50 of CNCCN(C)C(=O)CSC[C@H](O)[C@H](CC1CCCCC1)NC(=O)[C@H](Cc1c[nH]cn1)NC(=O)[C@H](Cc1ccccc1)NC(=O)OC(C)(C)C
161

State its IC50 for this molecule: CC(C)CC(C(=O)NCCN1CCOCC1)S(=O)(=O)C[C@H](O)[C@H](CC1CCCCC1)NC(=O)[C@H](Cc1c[nH]cn1)NC(=O)[C@H](Cc1ccccc1)NC(=O)OC(C)(C)C (some centres unmarked)
77

Supply measured IC50 of CC(C)(C)OC(=O)N[C@@H](Cc1ccccc1)C(=O)N[C@@H](Cc1cnc[nH]1)C(=O)N[C@@H](CC1CCCCC1)[C@@H](O)C[S+]([O-])CC(=O)NCCN1CCOCC1 (some centres unmarked) in your reply.
19

Given the molecule CC(C)(C)OC(=O)N[C@@H](Cc1ccccc1)C(=O)N[C@@H](Cc1cnc[nH]1)C(=O)N[C@@H](CC1CCCCC1)[C@@H](O)CSCC(=O)NCCN1CCOCC1 , write its reported IC50.
40

For the molecule CN1CCN(C(=O)CS(=O)(=O)C[C@H](O)[C@H](CC2CCCCC2)NC(=O)[C@H](Cc2cnc[nH]2)NC(=O)[C@H](Cc2ccccc2)NC(=O)OC(C)(C)C)CC1 , give its measured IC50 value.
20

# return recorded IC50 for input CC(C)(C)OC(=O)N[C@@H](Cc1ccccc1)C(=O)N[C@@H](Cc1c[nH]cn1)C(=O)N[C@@H](CC1CCCCC1)[C@@H](O)CSCC(=O)O [2-[X-thio]acetic acid]
904

Give reported IC50 value for CC(C)(C)OC(=O)N[C@@H](Cc1ccccc1)C(=O)N[C@@H](Cc1c[nH]cn1)C(=O)N[C@@H](CC1CCCCC1)[C@@H](O)CS(=O)(=O)CC(=O)NC1C[N+]2([O-])CCC1CC2 (some centres unmarked)
4.2

Name the recorded IC50 of the molecule listed here: CC(C)(C)OC(=O)N[C@@H](Cc1ccccc1)C(=O)N[C@@H](Cc1cnc[nH]1)C(=O)N[C@@H](CC1CCCCC1)[C@@H](O)CS(=O)(=O)CC(=O)NCCN1CCOCC1
9.4

Specify reported IC50 for the molecule shown: CC(C)(C)S(=O)(=O)C[C@@H](Cc1ccccc1)C(=O)N[C@@H](Cc1c[nH]cn1)C(=O)N[C@@H](CC1CCCCC1)[C@@H](O)CS(=O)(=O)CC(=O)NCCN1CCOCC1
7.2
